- target-or-system: KRAS-G12D protein (Homo sapiens, UniProt P01116, G12D)
- Sequence (P01116 1-188 isoform P01116-2 G12D): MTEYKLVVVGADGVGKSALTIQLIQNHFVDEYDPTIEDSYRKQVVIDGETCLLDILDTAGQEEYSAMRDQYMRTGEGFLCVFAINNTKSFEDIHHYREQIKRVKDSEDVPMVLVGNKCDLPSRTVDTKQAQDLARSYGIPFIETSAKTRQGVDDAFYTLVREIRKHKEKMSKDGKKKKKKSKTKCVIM
- assay-text: SOS-mediated nucleotide exchange assay (BODIPY-GDP / Tb-streptavidin TR-FRET)
- Format: biochemical
*1 amine or outer side, *2 acyl side, *3 side chain or, on linkers, in order; H or OH if unused. Where a SMILES comes first, the peptide text is derived from it. [ ]: non-standard residue; d: D form. Ala(pyrimidin-5-yl) = N[C@@H](Cc1cncnc1)C(=O)O; X30 = O=C([C@H](Cc1ncccc1F)N[*:1])[*:2]; Phe(2-F) = N[C@@H](Cc1ccccc1F)C(=O)O; NMe3Pal = CN[C@@H](Cc1cccnc1)C(=O)O; X1 = O=C(C12CC(CN[*:1])(C1)C2)[*:2]; NMeF = CN[C@@H](Cc1ccccc1)C(=O)O; PhLac = O=C(O)[C@@H](O)Cc1ccccc1; NMeS = CN[C@@H](CO)C(=O)O; NMeA = CN[C@@H](C)C(=O)O; Nle = CCCC[C@H](N)C(=O)O
So I've got a bunch of compounds here, and I need their pEC50 values.
Note: pEC50 values are expressed as the negative base-10 logarithm of concentration in M.

Exam item: Recorded pEC50 of CCCC[C@@H]1NC(=O)[C@H](Cc2cncnc2)NC(=O)[C@H](C)N(C)C(=O)[C@H](Cc2ccccc2)OC(=O)C23CC(CNC(=O)[C@H](Cc4ccccc4)N(C)C(=O)[C@H](CCCC)NC(=O)[C@H](Cc4ncccc4F)NC1=O)(C2)C3 [compound 229] (cyclo([NMeA][Ala(pyrimidin-5-yl)][Nle][X30][Nle][NMeF][X1][PhLac])) , please.
Marked response: 6.25

Exam item: Now the same for COc1ccc(C[C@@H]2NC(=O)[C@H](CC3CCC3)NC(=O)[C@H](Cc3cccnc3)NC(=O)[C@H](CCCNC(=N)N)NC(=O)[C@H](Cc3ccccc3)NC(=O)CSC[C@](C)(C(N)=O)NC(=O)[C@@H]3CCCCCC[C@H](NC2=O)C(=O)N3C)cc1
Marked response: 6.52

Exam item: Now the same for CCCC[C@@H]1NC(=O)[C@H](Cc2cncnc2)NC(=O)[C@H](CO)N(C)C(=O)[C@H](Cc2ccccc2)OC(=O)C23CC(CNC(=O)[C@H](Cc4cccnc4)N(C)C(=O)[C@H](CCCC)NC(=O)[C@H](Cc4ccccc4F)NC1=O)(C2)C3 [compound 119] (cyclo([NMe3Pal][X1][PhLac][NMeS][Ala(pyrimidin-5-yl)][Nle][Phe(2-F)][Nle]))
Marked response: 6.43
